Experiment: Biodistribution in mice bearing PC-3 xenografts
Format: in vivo, Balb/c nu/nu mice
Details: Balb/c nu/nu, mouse, stomach, iv, 100 pmol, total radioactivity, PC-3 xenografted Balb/c nu/nu mice, iv 100 pmol; 24 h pi; mean ± SD, n = 4; read-out: Stomach activity uptake
List of tissue uptake at 24 h values.
// units = %ID/g; emit number, no label

Compound	Display Unit	tissue uptake at 24 h
CC(C)C[C@H](NC(=O)C[C@H](O)[C@H](CC(C)C)NC(=O)[C@H](Cc1c[nH]cn1)NC(=O)CN(C)C(=O)[C@@H](NC(=O)[C@H](C)NC(=O)[C@](C)(Cc1c[nH]c2ccccc12)NC(=O)[C@H](CCC(N)=O)NC(=O)[C@@H](Cc1ccccc1)NC(=O)CN1CCC(NC(=O)COCCOCCNC(=O)CN2CCN(CC(=O)O)CCN(CC(=O)O)CCN(CC(=O)O)CC2)CC1)C(C)C)C(N)=O [[^177Lu]Lu-PKB3, metal not drawn]	%ID/g	0.16

Problem: Reported tissue uptake at 24 h for CC(C)C[C@H](NC(=O)C[C@H](O)[C@H](CC(C)C)NC(=O)[C@H](Cc1c[nH]cn1)NC(=O)CN(C)C(=O)[C@@H](NC(=O)[C@H](C)NC(=O)[C@](C)(Cc1c[nH]c2ccccc12)NC(=O)[C@H](CCC(N)=O)NC(=O)[C@@H](Cc1ccccc1)NC(=O)CN1CCC(NC(=O)COCCOCCNC(=O)CCC(C(=O)O)N2CCN(CC(=O)O)CCN(CC(=O)O)CCN(CC(=O)O)CC2)CC1)C(C)C)C(N)=O (some centres unmarked) [[^177Lu]Lu-PKB2, metal not drawn] : what is it?
Solution: 0.14

* * *

Experiment: Biodistribution in mice bearing PC-3 xenografts
Format: in vivo, Balb/c nu/nu mice
Conditions: mouse, total radioactivity; carcass; PC-3 xenografted Balb/c nu/nu mice, iv 100 pmol; 4 h pi; mean ± SD, n = 4; read-out: Body activity uptake
Measured Parameter: tissue uptake dose at 4 h (%ID)
// units = %ID; emit number, no label

Compound	Quantitative Result
CC(C)C[C@H](NC(=O)C[C@H](O)[C@H](CC(C)C)NC(=O)[C@H](Cc1c[nH]cn1)NC(=O)CN(C)C(=O)[C@@H](NC(=O)[C@H](C)NC(=O)[C@](C)(Cc1c[nH]c2ccccc12)NC(=O)[C@H](CCC(N)=O)NC(=O)[C@@H](Cc1ccccc1)NC(=O)CN1CCC(NC(=O)COCCOCCNC(=O)CCC(C(=O)O)N2CCN(CC(=O)O)CCN(CC(=O)O)CCN(CC(=O)O)CC2)CC1)C(C)C)C(N)=O (some centres unmarked) [[^177Lu]Lu-PKB2, metal not drawn]	2.3

Now let's try a different one.
Problem: Reported tissue uptake dose at 4 h for CC(C)C[C@H](NC(=O)C[C@H](O)[C@H](CC(C)C)NC(=O)[C@H](Cc1c[nH]cn1)NC(=O)CN(C)C(=O)[C@@H](NC(=O)[C@H](C)NC(=O)[C@](C)(Cc1c[nH]c2ccccc12)NC(=O)[C@H](CCC(N)=O)NC(=O)[C@@H](Cc1ccccc1)NC(=O)CN1CCC(NC(=O)COCCOCCNC(=O)CN2CCN(CC(=O)O)CCN(CC(=O)O)CCN(CC(=O)O)CC2)CC1)C(C)C)C(N)=O [[^177Lu]Lu-PKB3, metal not drawn] : what is it?
Solution: 2.2
